Molecular target: yeast Gal4-DNA binding domain fused to the ligand binding domain of human RORγ (Homo sapiens, UniProt P51449)
Construct: host or cells: HEK293t
Test: RORγ Reporter Assay (Gal4)
Format: cell-based
Settings: RORγ Reporter Assay (Gal4) at 1 μM; values given as lower bounds of ranges
reportedProperty: Gal4 activity range @ 1 μM (% inhibition)

Name the recorded Gal4 activity range @ 1 μM (% inhibition) of the item CC1CCC(CNc2ncnc(N3CCCC3c3ccc(C(F)(F)F)cc3)c2F)CC1 (stereo not shown) [Example 93] in your answer. >50 % inhibition

Hello, please tell me recorded Gal4 activity range @ 1 μM (% inhibition) for this one: Cc1ccc(CNc2ncnc(N3CCCC3c3ccc(OC(F)(F)F)cc3)c2F)cn1 (stereo not shown) [Example 97] >80 % inhibition

Query Gal4 activity range @ 1 μM (% inhibition) for CC(C)(C)C[C@@H](Nc1ncnc(N2CCOCC2c2ccc(C(F)(F)F)cc2)c1F)C(N)=O (stereo partly shown) [Example 20] >50 % inhibition

Provide measured Gal4 activity range @ 1 μM (% inhibition) value, entry: Cc1ccc(COc2ncnc(N3CCCC3c3ccc(C(F)(F)F)c(F)c3)c2F)cn1 (stereo not shown) [Example 73] >20 % inhibition

Please give the documented Gal4 activity range @ 1 μM (% inhibition) of COc1ccc(C2CCCN2c2ncnc(NCc3ccc(CC(N)=O)cc3)c2F)c(OC)c1 (stereo not shown) [Example 318] >20 % inhibition

Further cases:
Provide Gal4 activity range @ 1 μM (% inhibition) value for the following compound: CC(OC(C)(C)C)[C@@H](Nc1ncnc(N2CCCC2c2ccc(C(F)(F)F)cc2)c1F)C(N)=O (stereo partly shown) [Example 51] >80 % inhibition

Quick one: give measured Gal4 activity range @ 1 μM (% inhibition) for O=C1CCCN1Cc1ccc(CNc2ncnc(N3CCCC3c3ccc(C(F)(F)F)cc3)c2F)cc1 (stereo not shown) [Example 124] >20 % inhibition

Please look at this compound and report its Gal4 activity range @ 1 μM (% inhibition): NC(=O)Cc1ccc(CNc2ncnc(N3CCOC[C@@H]3c3ccc(OC(F)(F)F)cc3)c2F)cc1 [Example 230] >80 % inhibition

Consider the compound NC(=O)CC1CCC(CNc2ncnc(N3CCOC[C@@H]3c3ccc(C(F)(F)F)cc3)c2F)CC1 (stereo partly shown) [Example 206] and give its recorded Gal4 activity range @ 1 μM (% inhibition). >80 % inhibition

For the compound NC(=O)Cc1ncc(COc2ncnc(N3CCCC3c3ccc(C(F)(F)F)cc3)c2F)cn1 (stereo not shown) [Example 86] , report Gal4 activity range @ 1 μM (% inhibition). >20 % inhibition

###

Target: yeast Gal4-DNA binding domain fused to the ligand binding domain of human RORγ (Homo sapiens, UniProt P51449)
Construct: host or cells: HEK293t
Sequence (P51449 269-508 limits assumed): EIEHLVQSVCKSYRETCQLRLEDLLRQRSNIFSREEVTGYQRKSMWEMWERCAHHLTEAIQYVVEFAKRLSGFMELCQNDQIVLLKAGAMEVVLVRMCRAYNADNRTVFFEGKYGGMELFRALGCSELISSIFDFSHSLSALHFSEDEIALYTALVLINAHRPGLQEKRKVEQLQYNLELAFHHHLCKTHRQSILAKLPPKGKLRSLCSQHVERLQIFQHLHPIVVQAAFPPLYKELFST
Experiment: RORγ Reporter Assay (Gal4)
Assay type: cell-based
Settings: RORγ Reporter Assay (Gal4) at 1 μM; values given as lower bounds of ranges
reportedProperty: Gal4 activity range @ 1 μM (% inhibition)

Give the measured Gal4 activity range @ 1 μM (% inhibition) for CC(C)(C)C[C@@H](Nc1ncnc(N2CCOCC2c2ccc(OC(F)(F)F)cc2)c1F)C(N)=O (some centres unmarked) >80 % inhibition

Item CS(=O)(=O)N1CCC(CNc2ncnc(N3CCCC3c3ccc(C(F)(F)F)cc3O)c2F)CC1 (centres unmarked) : provide Gal4 activity range @ 1 μM (% inhibition) >80 % inhibition

Return Gal4 activity range @ 1 μM (% inhibition) (reported value) for this compound: NC(=O)Cc1ccc(CNc2ncnc(N3CCCC3c3ccc(O)cc3)c2F)cc1 (centres unmarked) >20 % inhibition

Return Gal4 activity range @ 1 μM (% inhibition) for the following compound: NC(=O)C1(CNc2ncnc(N3CCOC[C@@H]3c3ccc(C(F)(F)F)cc3)c2F)CCOCC1 >50 % inhibition

Quote Gal4 activity range @ 1 μM (% inhibition) reported for N#CC1(CNc2ncnc(N3CCOC[C@@H]3c3ccc(C(F)(F)F)cc3)c2F)CCOCC1 please. >80 % inhibition

---
Determine from records and report Gal4 activity range @ 1 μM (% inhibition) for NC(=O)Cc1ccc(CNc2ncnc(N3CCC[C@@H]3c3ccc(C(F)(F)F)cc3F)c2F)cc1 >80 % inhibition

Please list Gal4 activity range @ 1 μM (% inhibition) recorded for the compound CN1CC(CNc2ncnc(N3CCCC3c3ccc(C(F)(F)F)cc3)c2F)CC1=O (centres unmarked) >20 % inhibition

Provide only the value of recorded Gal4 activity range @ 1 μM (% inhibition) for O=C(O)Cc1ccc(CNc2ncnc(N3CCC[C@H]3c3ccc(C(F)(F)F)cc3)c2F)cc1 >20 % inhibition

Return the recorded Gal4 activity range @ 1 μM (% inhibition) value; entry: O=S(=O)(NC1CC1)c1ccc(CNc2ncnc(N3CCOCC3c3ccccc3)c2F)cc1 (centres unmarked) >80 % inhibition

Consider the compound O=S(=O)(N1CCC(CNc2ncnc(N3CCOC[C@@H]3c3ccc(C(F)(F)F)cc3)c2F)CC1)C(F)(F)F . State its measured Gal4 activity range @ 1 μM (% inhibition). >80 % inhibition

Give Gal4 activity range @ 1 μM (% inhibition) for OCC1CCC(CNc2ncnc(N3CCC[C@@H]3c3ccc(C(F)(F)F)cc3)c2F)CC1 (some centres unmarked) >80 % inhibition

Using known records, supply Gal4 activity range @ 1 μM (% inhibition) for NC(=O)Cc1ccc(CNc2ncnc(N3CCOCC3c3ccccc3)c2F)s1 (centres unmarked) >20 % inhibition

Quickly give me recorded Gal4 activity range @ 1 μM (% inhibition) for COc1cc(C(F)(F)F)ccc1C1CCCN1c1ncnc(N[C@H](CC(C)(C)C)C(N)=O)c1F (some centres unmarked) >20 % inhibition

Output Gal4 activity range @ 1 μM (% inhibition) of Cc1ccc(CNc2ncnc(N3CCCC3(C)c3ccc(C(F)(F)F)cc3)c2F)cn1 (centres unmarked) >50 % inhibition

###

Target: human RORγt (Ligand Binding Domain) (Homo sapiens)
Construct: purchased Crelux (Planegg, Germany) batch no PC5032-1
Assay: Fluorescence Polarization (FP) Assay
Conditions: Fluorescence Polarization (FP) Assay; values given as upper bounds of activity ranges; read-out: FP activity range
pIC50: −log10 of the molar value.
reportedProperty: pIC50

Please report the measured pIC50 for NC(=O)C1(CNc2ncnc(N3CCOC[C@@H]3c3ccc(C(F)(F)F)cc3)c2F)CCCC1 > 5.00

Others:
Please list pIC50 recorded for the compound NC(=O)Cc1ccc(CNc2ncnc(N3CC(=O)CC3c3ccc(C(F)(F)F)cc3)c2F)cc1 (centres unmarked) > 6.30

Specify pIC50 for O=C1CC2(CCCN(c3ncnc(N4CCCC4c4ccc(C(F)(F)F)cc4)c3F)C2)CN1 (centres unmarked) and stop. > 5.00

Consider the compound O=C(O)CC1CCC(CNc2ncnc(N3CCCC3c3ccc(C(F)(F)F)cc3)c2F)CC1 (centres unmarked) and give its recorded pIC50. > 6.00

Look up and report measured pIC50 for this entry: CS(=O)(=O)N1CCC(CNc2ncnc(N3CCC[C@@H]3c3ccc(C(F)(F)F)cc3)c2F)CC1 > 6.30

Read the entry CC1(C)NC(=O)N(Cc2ccc(CNc3ncnc(N4CCCC4c4ccc(C(F)(F)F)cc4)c3F)cc2)C1=O (centres unmarked) and write its reported pIC50. > 5.00

Give pIC50 for Cc1ccc(CNc2ncnc(N3CC(C)CC3c3ccc(C(F)(F)F)cc3)c2F)cn1 (centres unmarked) > 6.00

Entry Cn1cc(CNc2ncnc(N3CCCC3c3ccc(C(F)(F)F)cc3)c2F)cn1 (centres unmarked) needs its pIC50 filled in; supply it. > 5.00

###

Target: yeast Gal4-DNA binding domain fused to the ligand binding domain of human RORγ (Homo sapiens, UniProt P51449)
Construct: host or cells: HEK293t
Assay: RORγ Reporter Assay (Gal4)
Format: cell-based
Conditions: RORγ Reporter Assay (Gal4) at 0.1 μM; values given as lower bounds of ranges
Procedure: The activity of the compounds was evaluated using a Fluorescence Polarization (FP) Assay and, in most cases, a Th17 Assay and/or RORγ Reporter assay (also referred to as Gal4 assay). The FP assay is an in vitro assay monitoring binding within the ligand binding pocket. The RORγ and the Th17 assays are both cell-based assays monitoring functional activity of the compound assayed. […]
reportedProperty: Gal4 activity range @ 0.1 μM (% inhibition)

Recorded Gal4 activity range @ 0.1 μM (% inhibition), per entry:
Input OCCC1(CNc2ncnc(N3CCC[C@@H]3c3ccc(C(F)(F)F)cc3)c2F)CCOCC1 , output reported Gal4 activity range @ 0.1 μM (% inhibition). >50 % inhibition

Please list Gal4 activity range @ 0.1 μM (% inhibition) recorded for the compound O=C(O)Cc1ccc(CNc2ncnc(N3CCC[C@@H]3c3ccc(C(F)(F)F)cc3)c2F)s1 >20 % inhibition

Using known records, supply Gal4 activity range @ 0.1 μM (% inhibition) for O=C(O)Cc1ccc(CNc2ncnc(N3CCCC3c3ccc(OC(F)(F)F)cc3)c2F)cc1 (centres unmarked) >50 % inhibition

Find the measured Gal4 activity range @ 0.1 μM (% inhibition) of O=S1(=O)CCC(O)(CNc2ncnc(N3CCOC[C@@H]3c3ccc(C(F)(F)F)cc3)c2F)CC1 and report it. >0 % inhibition

Fill in Gal4 activity range @ 0.1 μM (% inhibition) for record CS(=O)(=O)CC1(CNc2ncnc(N3CCOC[C@@H]3c3ccc(C(F)(F)F)cc3)c2F)CCOCC1 >50 % inhibition

Read the entry CCOc1ccc(C2CCCN2c2ncnc(NCc3ccc(CC(N)=O)cc3)c2F)cc1 (centres unmarked) and write its reported Gal4 activity range @ 0.1 μM (% inhibition). >50 % inhibition

In one line, give reported Gal4 activity range @ 0.1 μM (% inhibition) of the entry OC1(CNc2ncnc(N3CCC[C@@H]3c3ccc(C(F)(F)F)cc3)c2F)CCSC1 (some centres unmarked) . >50 % inhibition

Name the recorded Gal4 activity range @ 0.1 μM (% inhibition) of the item Cc1ccc(CNc2ncnc(N3CCCC3c3ccc(C(F)(F)F)cc3O)c2F)cn1 (centres unmarked) in your answer. >0 % inhibition

// fetch Gal4 activity range @ 0.1 μM (% inhibition) given entry O=C(O)CC1CCC(CNc2ncnc(N3CCCC3c3ccc(C(F)(F)F)cc3)c2F)CC1 (centres unmarked) >50 % inhibition

// Input: NC(=O)Cc1ccc(CNc2ncnc(N3CCCCC3c3ccc(C(F)(F)F)cc3)c2F)cc1 (centres unmarked) . Output its Gal4 activity range @ 0.1 μM (% inhibition) only. >20 % inhibition

More entries:
Quickly give me recorded Gal4 activity range @ 0.1 μM (% inhibition) for COc1ccc(CNc2ncnc(N3CCCC3c3ccc(C(F)(F)F)cc3)c2F)cn1 (centres unmarked) >20 % inhibition

Read the entry CC(C)CC(Nc1ncnc(N2CCCC2c2ccc(C(F)(F)F)cc2)c1F)c1nnn[nH]1 (centres unmarked) and write its reported Gal4 activity range @ 0.1 μM (% inhibition). >0 % inhibition

Identify the reported Gal4 activity range @ 0.1 μM (% inhibition) for the following entry. COC1(CNc2ncnc(N3CCCC3c3ccc(C(F)(F)F)cc3)c2F)CCOCC1 (centres unmarked) >50 % inhibition

State, in one line, measured Gal4 activity range @ 0.1 μM (% inhibition) of NC(=O)Cc1ccc(CNc2ncnc(N3CCOCC3c3ccccc3)c2F)s1 (centres unmarked) >0 % inhibition

Quote Gal4 activity range @ 0.1 μM (% inhibition) reported for NC(=O)Cc1ccc(CNc2ncnc(N3CCCC3c3cccc(Br)c3)c2F)cc1 (centres unmarked) please. >50 % inhibition

Input Fc1c(NCC2CCSCC2)ncnc1N1CCC[C@@H]1c1ccc(C(F)(F)F)cc1 , output reported Gal4 activity range @ 0.1 μM (% inhibition). >20 % inhibition

Please give measured Gal4 activity range @ 0.1 μM (% inhibition) of the following entry: COCCNS(=O)(=O)c1ccc(CNc2ncnc(N3CCC[C@@H]3c3ccc(C(F)(F)F)cc3)c2F)cc1 >80 % inhibition

Hello, please tell me recorded Gal4 activity range @ 0.1 μM (% inhibition) for this one: Cc1ccc(CNc2ncnc(N3CCCC3c3ccc(C(F)(F)F)cc3)c2F)cn1 (centres unmarked) >20 % inhibition

Please supply the value of reported Gal4 activity range @ 0.1 μM (% inhibition) for the item Fc1c(NCc2cccs2)ncnc1N1CCC[C@@H]1c1ccc(C(F)(F)F)cc1 >0 % inhibition

Retrieve Gal4 activity range @ 0.1 μM (% inhibition) measured for NC(=O)Cc1ccc(CN2CCc3c2ncnc3N2CCC[C@@H]2c2ccc(C(F)(F)F)cc2)cc1 and print it. >80 % inhibition

Data origin, for the record: patent US10689383B2
